system: KM12 colon; assay: NCI tumour cell line growth inhibition, 48 h
Below, each entry is listed alongside its reported TGI.
Readout: TGI

INSERT INTO measurements (molecule, observed_measurement) VALUES
  ('C=CCN=C1N=C(CC(=O)OCC)CS1', '> 100 µM'),
  ('Cc1nn2c(/C=C3/C(=O)Nc4ccc(Cl)cc43)c(-c3ccccc3)nc2s1', '5.88 µM'),
  ('CSCCCNC(=O)c1csc([C@@H](CSC)NC(=O)CCNC(=O)[C@@H](NC(=O)OCC(Br)(Br)Br)C(C)O)n1 (stereo partly drawn)', '> 100 µM');

###

system: MDA-MB-231 breast; assay: NCI tumour cell line growth inhibition, 48 h; in the data active = GI50 below about 0.43 µM; inactive = the rest
Outcomes: active, inactive

INSERT INTO results (compound_structure_string, class_assignment) VALUES
  ('Cc1ccc(NS(=O)(=O)c2cc(C)ccc2C)cc1', 'inactive'),
  ('O=C(c1cc(-c2cc3c(cc2C(=O)N2Cc4ccccc4C[C@H]2CN2CCOCC2)OCO3)n2c1CCCC2)N(c1ccccc1)c1ccc(O)cc1', 'inactive'),
  ('CO/N=C1/NC(=O)/C(=C/c2ccc3ncccc3c2)S1', 'inactive'),
  ('c1ccc2[nH]c(-c3ccc(OCCCCCOc4ccc(-c5nc6ccccc6[nH]5)cc4)cc3)nc2c1', 'inactive'),
  ('Cn1c2ccccc2c2nnc(N/N=C/c3ccccn3)nc21', 'inactive'),
  ('Cc1cc(N/N=C/c2nc(-c3ccccc3)oc2C)c2cc(Cl)ccc2n1', 'inactive'),
  ('Cc1c(Cl)cccc1NC(=O)c1sc2nc3c(cc2c1N)CCCCCC3', 'active'),
  ('CCS(=O)(=O)c1ccc(OC)c(Nc2nccc(N(C)c3ccc4c(C)[nH]nc4c3)n2)c1', 'inactive'),
  ('Cc1ccc(NC2=C(Sc3ccc(Cl)cc3)C(=O)N(Cc3ccccc3)C2=O)cc1Cl', 'inactive'),
  ('O=C(Nc1ccncc1)C(=O)c1cn(S(=O)(=O)c2ccccc2F)c2ccccc12', 'inactive'),
  ('CCOC(=O)C(Cc1c[nH]c2cc([N+](=O)[O-])ccc12)(NC(C)=O)C(=O)OCC', 'inactive');

###

system: 786-0 renal; test: NCI tumour cell line growth inhibition, 48 h; in the data active means GI50 below about 0.43 µM; inactive means the rest
Outcomes: active, inactive

INSERT INTO assay_data (compound_structure_string, class_assignment) VALUES
  ('O=C(O)c1ccc(NS(=O)(=O)c2cccc3cccnc23)cc1', 'inactive'),
  ('O=C(Nc1ccc(Nc2ccncc2)cc1)c1ccc(Nc2ccnc3ccc([N+](=O)[O-])cc23)cc1', 'inactive'),
  ('Cc1cc(-c2nc3ccc(O)cc3s2)ccc1N', 'inactive'),
  ('Cc1nn2c(/C=C3/C(=O)Nc4ccc(Cl)cc43)c(-c3ccccc3)nc2s1', 'inactive'),
  ('Cc1c(Cl)cccc1NC(=O)c1sc2nc3c(cc2c1N)CCCCCC3', 'active'),
  ('COc1ccc(C(=O)c2cc(OC)c(OC)c(OC)c2)cc1O', 'inactive'),
  ('Cc1nc(NC(=S)Nc2ccc(F)cc2)sc1C(=O)NNC(=S)Nc1ccc(F)cc1', 'inactive'),
  ('COc1cc(-c2cc(-c3nc4ccccc4[nH]3)[nH]n2)cc(OC)c1OC', 'inactive');

###

system: SN12C renal; test: NCI tumour cell line growth inhibition, 48 h
*1 amine or outer side, *2 acyl side, *3 side chain or, on linkers, in order; H or OH if unused. Where a SMILES comes first, the peptide text is derived from it. Bridges are numbered along the chain shown (N, C = ends). [ ]: non-standard residue; d: D form. The star is where a group is joined. Phe(3-Me) = Cc1cccc(C[C@H](N)C(=O)O)c1; NH(4-Cl-2-F-phenyl) = Fc1cc(Cl)ccc1N*; Pro(4R-Me) = C[C@H]1CN[C@H](C(=O)O)C1; Hyp = O=C(O)[C@@H]1C[C@@H](O)CN1; aThr = C[C@H](O)[C@H](N)C(=O)O; Pip = O=C(O)[C@@H]1CCCCN1; CO = O=C([*:1])[*:2]
Readout: TGI (µM)

INSERT INTO results (compound, readout, display_unit, value_relation_sign, observed_measurement) VALUES
  ('CSc1cc(Cl)c(C)cc1S(=O)(=O)NC(=O)NNc1ccccn1', 'TGI', 'µM', '>', 100),
  ('CN(C)CC#Cc1cccc(C(=O)c2cnn(-c3ccc(F)cc3)c2N)c1', 'TGI', 'µM', '>', 25),
  ('C/C(=N/NC(=S)N(Cc1ccccn1)Cc1ccccn1)c1cnccn1', 'TGI', 'µM', '=', 12.9),
  ('Cc1c(CN2CCC(Nc3ncnc4sc(CC(F)(F)F)cc34)CC2)ccc2c1cc(C#N)n2Cc1cn[nH]c1', 'TGI', 'µM', '=', 26.4),
  ('CC1(C)N=C(N)N=C(N)N1c1cccc(CCCCc2ccc(S(=O)(=O)F)cc2Cl)c1', 'TGI', 'µM', '=', 22.5),
  ('NC1CCC[C@@H](O)[C@H]1O (some centres undefined)', 'TGI', 'µM', '>', 100),
  ('Nc1ncc(-c2ccc(C(F)(F)F)cc2)c(NC2CCCCCC2)n1', 'TGI', 'µM', '>', 100),
  ('Cc1cccc(C[C@H](NC(=O)Nc2ccc(Cl)cc2F)C(=O)N[C@@H]2C(=O)N3C[C@H](O)C[C@H]3C(=O)N3CCCC[C@H]3C(=O)N[C@@H](C)C(=O)N3C[C@H](C)C[C@H]3C(=O)O[C@H]2C)c1 ({NH(4-Cl-2-F-phenyl)-CO}-[Phe(3-Me)][aThr][Hyp][Pip]A[Pro(4R-Me)]; ester 2-C)', 'TGI', 'µM', '=', 4.6),
  ('CCOC(=O)c1cc2cc(CSc3ccccc3)ccc2oc1=O', 'TGI', 'µM', '>', 100);
